Test system: Staphylococcus aureus
test.summary: Antibacterial activity against Staphylococcus aureus ATCC 33591
Type: functional
// reported MIC for each item listed
readout.name: MIC

{"structure": "CC(=O)NC[C@H]1CN(c2ccc(C(=O)/C=C/c3ccco3)c(F)c2)C(=O)O1", "system.tested": "Staphylococcus aureus", "test.value": "8 µg/mL"}
{"structure": "CC(=O)NC[C@H]1CN(c2ccc(C(=O)/C=C/c3nccn3C)c(F)c2)C(=O)O1", "system.tested": "Staphylococcus aureus", "test.value": "32 µg/mL"}
{"structure": "CC(=O)NC[C@H]1CN(c2ccc(N3CCOCC3)c(F)c2)C(=O)O1", "system.tested": "Staphylococcus aureus", "test.value": "1 µg/mL"}
{"structure": "CC(=O)NC[C@H]1CN(c2ccc(/C=C/C(=O)c3ccccc3)cc2)C(=O)O1", "system.tested": "Staphylococcus aureus", "test.value": "> 32 µg/mL"}
{"structure": "COc1ccc(/C=C/C(=O)c2ccc(N3C[C@H](CNC(C)=O)OC3=O)cc2)cc1OC", "system.tested": "Staphylococcus aureus", "test.value": "> 32 µg/mL"}
{"structure": "CC(=O)NC[C@H]1CN(c2ccc(/C=C/C(=O)c3ccc([N+](=O)[O-])cc3)cc2)C(=O)O1", "system.tested": "Staphylococcus aureus", "test.value": "32 µg/mL"}
{"structure": "CC(=O)NC[C@H]1CN(c2ccc(C(=O)/C=C/c3cccs3)c(F)c2)C(=O)O1", "system.tested": "Staphylococcus aureus", "test.value": "32 µg/mL"}
{"structure": "COc1cc(/C=C/C(=O)c2ccc(N3C[C@H](CNC(C)=O)OC3=O)cc2)cc(OC)c1OC", "system.tested": "Staphylococcus aureus", "test.value": "> 32 µg/mL"}
{"structure": "CC(=O)NC[C@H]1CN(c2ccc(C(=O)/C=C/c3ccccn3)cc2)C(=O)O1", "system.tested": "Staphylococcus aureus", "test.value": "32 µg/mL"}

###

Tested on: Enterococcus faecium
test.summary: Antibacterial activity against Enterococcus faecium ATCC 12202
Type: functional
// reported MIC for each item listed

{"structure": "COC(=S)NC[C@H]1CN(c2ccc(C(=O)/C=C/c3ccccn3)c(F)c2)C(=O)O1", "value.operator": "=", "MIC, µg/mL": 2}
{"structure": "CC(=O)NC[C@H]1CN(c2ccc(/C=C/C(=O)c3ccc(C)cc3)cc2)C(=O)O1", "value.operator": "=", "MIC, µg/mL": 32}
{"structure": "COC(=O)c1ccc(/C=C/C(=O)c2ccc(N3C[C@H](CNC(C)=O)OC3=O)cc2)cc1", "value.operator": ">", "MIC, µg/mL": 32}
{"structure": "CC(=O)NC[C@H]1CN(c2ccc(C(=O)/C=C/c3ccccn3)cc2)C(=O)O1", "value.operator": "=", "MIC, µg/mL": 64}
{"structure": "CC(=O)NC[C@H]1CN(c2ccc(C(=O)/C=C/c3ccccc3)cc2)C(=O)O1", "value.operator": ">", "MIC, µg/mL": 32}
{"structure": "CC(=O)NC[C@H]1CN(c2ccc(/C=C/C(=O)c3c(F)cc(Cl)cc3Cl)cc2)C(=O)O1", "value.operator": ">", "MIC, µg/mL": 32}
{"structure": "CC(=O)NC[C@H]1CN(c2ccc(C(=O)/C=C/c3ccccn3)c(F)c2)C(=O)O1", "value.operator": "=", "MIC, µg/mL": 16}
{"structure": "CC(=O)NC[C@H]1CN(c2ccc(C(=O)/C=C/c3ncc[nH]3)c(F)c2)C(=O)O1", "value.operator": "=", "MIC, µg/mL": 16}
{"structure": "CC(=O)NC[C@H]1CN(c2ccc(C(=O)/C=C/c3ccco3)cc2)C(=O)O1", "value.operator": "=", "MIC, µg/mL": 32}
{"structure": "CC(=O)NC[C@H]1CN(c2ccc(C(=O)/C=C/c3nccn3C)c(F)c2)C(=O)O1", "value.operator": "=", "MIC, µg/mL": 32}
{"structure": "CC(=O)NC[C@H]1CN(c2ccc(C(=O)/C=C/c3ccc(F)cc3)cc2)C(=O)O1", "value.operator": ">", "MIC, µg/mL": 32}
{"structure": "CC(=O)NC[C@H]1CN(c2ccc(N3CCOCC3)c(F)c2)C(=O)O1", "value.operator": "=", "MIC, µg/mL": 2}
{"structure": "COc1cc(/C=C/C(=O)c2ccc(N3C[C@H](CNC(C)=O)OC3=O)cc2)cc(OC)c1OC", "value.operator": ">", "MIC, µg/mL": 32}
{"structure": "COc1ccc(C(=O)/C=C/c2ccc(N3C[C@H](CNC(C)=O)OC3=O)cc2)cc1", "value.operator": ">", "MIC, µg/mL": 32}

###

// reported MIC for each item listed
System: Enterococcus faecium
test.summary: Antibacterial activity against Enterococcus faecium ATCC 12202
Assay type: functional

{"structure": "CC(=O)NC[C@H]1CN(c2ccc(/C=C/C(=O)c3ccc([N+](=O)[O-])cc3)cc2)C(=O)O1", "value.operator": "=", "MIC [µg/mL]": 32}
{"structure": "CC(=O)NC[C@H]1CN(c2ccc(C(=O)/C=C/c3ccco3)c(F)c2)C(=O)O1", "value.operator": "=", "MIC [µg/mL]": 16}
{"structure": "CC(=O)NC[C@H]1CN(c2ccc(C(=O)/C=C/c3cccs3)c(F)c2)C(=O)O1", "value.operator": "=", "MIC [µg/mL]": 32}
{"structure": "CC(=O)NC[C@H]1CN(c2ccc(/C=C/C(=O)c3ccccc3)cc2)C(=O)O1", "value.operator": ">", "MIC [µg/mL]": 32}
{"structure": "CN[C@H](CC(C)C)C(=O)N[C@H]1C(=O)N[C@@H](CC(N)=O)C(=O)N[C@H]2C(=O)N[C@H]3C(=O)N[C@H](C(=O)N[C@H](C(=O)O)c4cc(O)cc(O)c4-c4cc3ccc4O)[C@H](O)c3ccc(c(Cl)c3)Oc3cc2cc(c3O[C@@H]2O[C@H](CO)[C@@H](O)[C@H](O)[C@H]2O[C@H]2C[C@](C)(N)[C@H](O)[C@H](C)O2)Oc2ccc(cc2Cl)[C@H]1O", "value.operator": ">", "MIC [µg/mL]": 32}
{"structure": "CC(=O)NC[C@H]1CN(c2ccc(/C=C/C(=O)c3cccc(F)c3)cc2)C(=O)O1", "value.operator": ">", "MIC [µg/mL]": 64}
{"structure": "COc1ccc(/C=C/C(=O)c2ccc(N3C[C@H](CNC(C)=O)OC3=O)cc2)cc1OC", "value.operator": ">", "MIC [µg/mL]": 32}
